# ASSAY TARGET: PTP1B (human recombinant, kit BML-AK822) (Homo sapiens, UniProt P18031)
# Sequence (P18031 1-322 limits assumed): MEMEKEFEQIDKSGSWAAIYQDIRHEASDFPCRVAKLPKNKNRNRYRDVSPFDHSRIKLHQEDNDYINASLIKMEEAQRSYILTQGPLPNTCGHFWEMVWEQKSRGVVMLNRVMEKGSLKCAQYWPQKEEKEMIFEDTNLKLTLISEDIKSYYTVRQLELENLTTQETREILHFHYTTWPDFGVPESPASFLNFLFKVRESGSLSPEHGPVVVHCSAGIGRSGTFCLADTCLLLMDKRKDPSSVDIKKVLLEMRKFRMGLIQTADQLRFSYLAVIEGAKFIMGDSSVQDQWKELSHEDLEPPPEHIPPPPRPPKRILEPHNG
# PROTOCOL TEXT: colorimetric malachite green
# Assay type: biochemical
# SETUP CONDITIONS: read-out: % inhibition at 10 µM
MEASUREMENT NAME: inhibition at 10 µM (%)
# unit: % | format: bare number

**Q:** Quick one: inhibition at 10 µM of "Cc1ccc(-c2csc(N(C(=O)CCc3ccccc3)c3ccc(F)cc3)n2)cc1" ?
**A:** 33

**Q:** Another molecule to look at: "Cc1ccc(-c2csc(N(C(=O)c3ccc(Cl)cc3)c3ccc(F)cc3)n2)cc1"
**A:** 35.2

**Q:** Another molecule to look at: "O=C(c1ccc(Cl)cc1)N(c1ccc(F)cc1)c1nc(-c2ccccc2)cs1"
**A:** 37.2

In the following, a different molecule is considered.
**Q:** Quick one: inhibition at 10 µM of "COc1ccc(C(=O)N(C2=NCCS2)c2ccccc2C(F)(F)F)cc1" ?
**A:** 48

###

# ASSAY TARGET: PTP1B (human recombinant, kit BML-AK822) (Homo sapiens, UniProt P18031)
# PROTOCOL TEXT: biochemical
# SETUP CONDITIONS: read-out: % inhibition at 10 µM
Measured inhibition at 10 µM of individual entries

**Q:** Quick one: inhibition at 10 µM of "O=C(CCc1ccccc1)N(c1ccc(F)cc1)c1nc(-c2ccccc2)cs1" ?
**A:** 69%

**Q:** Another compound to look at: "Cc1ccc(-c2csc(N(C(=O)Cc3ccccc3)c3ccc(F)cc3)n2)cc1"
**A:** 60.3%

**Q:** Another compound to look at: "COc1ccc(CCN(C(=O)CCc2ccccc2)c2nc(-c3ccc(OC)cc3)cs2)cc1"
**A:** 69.9%

**Q:** Another compound to look at: "COc1ccc(-c2csc(N(C(=O)c3ccc(Cl)cc3)c3ccc(F)cc3)n2)cc1"
**A:** 56.9%

**Q:** Another compound to look at: "COc1ccc(CCN(C(=O)Cc2ccccc2)c2nc(-c3ccc(OC)cc3)cs2)cc1"
**A:** 76.6%

**Q:** Another compound to look at: "COc1ccc(-c2csc(N(C(=O)CCc3ccccc3)c3ccc(F)cc3)n2)cc1"
**A:** 74.7%
